test system: PC-3 (prostate cancer, no ETS translocation) cell line; assay: 72 h growth inhibition (GI50) assay in PC-3; details: read-out: PC-3 Prostate cancer No ETS Translocation GI50; 72 h growth inhibition, PC-3 cells

>  <molecule>
COC(=O)C(Cc1c[nH]c2ccc(OC)cc12)NC(=O)C(OC)C1Cc2cc3cc(OC4CC(OC5CC(O)C(O)C(C)O5)C(O)C(C)O4)c(C)c(O)c3c(O)c2C(=O)C1OC1CC(OC2CC(OC3CC(C)(O)C(O)C(C)O3)C(O)C(C)O2)C(O)C(C)O1 (centres unmarked) [Analogue 49]

>  <lt.gt.eq>
=

>  <GI50 / nM>
617

$$$$
>  <molecule>
COC(=O)C(Cc1ccc2ccccc2c1)NC(=O)C(OC)C1Cc2cc3cc(OC4CC(OC5CC(O)C(O)C(C)O5)C(O)C(C)O4)c(C)c(O)c3c(O)c2C(=O)C1OC1CC(OC2CC(OC3CC(C)(O)C(O)C(C)O3)C(O)C(C)O2)C(O)C(C)O1 (centres unmarked) [Analogue 58]

>  <lt.gt.eq>
=

>  <GI50 / nM>
1600

$$$$
>  <molecule>
COC(=O)C(Cc1c[nH]c2cc(C(F)(F)F)ccc12)NC(=O)C(OC)C1Cc2cc3cc(OC4CC(OC5CC(O)C(O)C(C)O5)C(O)C(C)O4)c(C)c(O)c3c(O)c2C(=O)C1OC1CC(OC2CC(OC3CC(C)(O)C(O)C(C)O3)C(O)C(C)O2)C(O)C(C)O1 (centres unmarked) [Analogue 55]

>  <lt.gt.eq>
=

>  <GI50 / nM>
2400

$$$$
>  <molecule>
COC(=O)C(Cc1c[nH]c2c(-c3ccccc3)cccc12)NC(=O)C(OC)C1Cc2cc3cc(OC4CC(OC5CC(O)C(O)C(C)O5)C(O)C(C)O4)c(C)c(O)c3c(O)c2C(=O)C1OC1CC(OC2CC(OC3CC(C)(O)C(O)C(C)O3)C(O)C(C)O2)C(O)C(C)O1 (centres unmarked) [Analogue 52]

>  <lt.gt.eq>
>

>  <GI50 / nM>
10000

$$$$
>  <molecule>
COC(=O)C(Cc1c[nH]c2ccccc12)NC(=O)C(OC)C1Cc2cc3cc(OC4CC(OC5CC(O)C(O)C(C)O5)C(O)C(C)O4)c(C)c(O)c3c(O)c2C(=O)C1OC1CC(OC2CC(OC3CC(C)(O)C(O)C(C)O3)C(O)C(C)O2)C(O)C(C)O1 (centres unmarked) [MTMSA-Trp (3), Mithramycin SA-Tryptophan, reference compound]

>  <lt.gt.eq>
=

>  <GI50 / nM>
76

$$$$

* * *

test system: TC-32 (Ewing sarcoma, EWS-FLI1 Type 1) cell line; conditions: 72 h growth inhibition, TC-32 cells

>  <compound>
COC(=O)C(Cc1ccc2ccccc2c1)NC(=O)C(OC)C1Cc2cc3cc(OC4CC(OC5CC(O)C(O)C(C)O5)C(O)C(C)O4)c(C)c(O)c3c(O)c2C(=O)C1OC1CC(OC2CC(OC3CC(C)(O)C(O)C(C)O3)C(O)C(C)O2)C(O)C(C)O1 (stereo not drawn)

>  <TC-32 Ewing sarcoma EWS-FLI1 Type 1 GI50, nM>
541

$$$$
>  <compound>
COC(=O)C(Cc1ccccc1)NC(=O)C(Cc1c[nH]c2ccccc12)NC(=O)C(OC)C1Cc2cc3cc(OC4CC(OC5CC(O)C(O)C(C)O5)C(O)C(C)O4)c(C)c(O)c3c(O)c2C(=O)C1OC1CC(OC2CC(OC3CC(C)(O)C(O)C(C)O3)C(O)C(C)O2)C(O)C(C)O1 (stereo not drawn)

>  <TC-32 Ewing sarcoma EWS-FLI1 Type 1 GI50, nM>
37

$$$$
>  <compound>
COC(=O)C(Cc1c[nH]c2c(-c3ccccc3)cccc12)NC(=O)C(OC)C1Cc2cc3cc(OC4CC(OC5CC(O)C(O)C(C)O5)C(O)C(C)O4)c(C)c(O)c3c(O)c2C(=O)C1OC1CC(OC2CC(OC3CC(C)(O)C(O)C(C)O3)C(O)C(C)O2)C(O)C(C)O1 (stereo not drawn)

>  <TC-32 Ewing sarcoma EWS-FLI1 Type 1 GI50, nM>
2402

$$$$
>  <compound>
COC(=O)C(Cc1c[nH]c2ccccc12)NC(=O)C(Cc1c[nH]c2ccccc12)NC(=O)C(OC)C1Cc2cc3cc(OC4CC(OC5CC(O)C(O)C(C)O5)C(O)C(C)O4)c(C)c(O)c3c(O)c2C(=O)C1OC1CC(OC2CC(OC3CC(C)(O)C(O)C(C)O3)C(O)C(C)O2)C(O)C(C)O1 (stereo not drawn)

>  <TC-32 Ewing sarcoma EWS-FLI1 Type 1 GI50, nM>
41

$$$$
>  <compound>
COC(=O)C(Cc1c[nH]c2ccc(OC)cc12)NC(=O)C(OC)C1Cc2cc3cc(OC4CC(OC5CC(O)C(O)C(C)O5)C(O)C(C)O4)c(C)c(O)c3c(O)c2C(=O)C1OC1CC(OC2CC(OC3CC(C)(O)C(O)C(C)O3)C(O)C(C)O2)C(O)C(C)O1 (stereo not drawn)

>  <TC-32 Ewing sarcoma EWS-FLI1 Type 1 GI50, nM>
675

$$$$
>  <compound>
COC(=O)C(Cc1c[nH]c2cc(C(F)(F)F)ccc12)NC(=O)C(OC)C1Cc2cc3cc(OC4CC(OC5CC(O)C(O)C(C)O5)C(O)C(C)O4)c(C)c(O)c3c(O)c2C(=O)C1OC1CC(OC2CC(OC3CC(C)(O)C(O)C(C)O3)C(O)C(C)O2)C(O)C(C)O1 (stereo not drawn)

>  <TC-32 Ewing sarcoma EWS-FLI1 Type 1 GI50, nM>
2339

$$$$

The measurements presented in this section are drawn from patent US11224609B2.
